Hey, just so you know, these numbers are from patent US3954730A.

Measured MIC values are reported for all entries that follow.
Test system: Staph. aureus 133
Test: Minimum inhibitory concentration (MIC) in vitro, liquid medium test tube series dilution test
Format: cell-based
Details: 24 hours incubation at 37° C
Experimental: Table 1, which follows, specifies the minimum inhibitory concentrations (MIC) in vitro, in U/ml of nutrient medium of typical compounds of the invention. They were determined in a liquid medium in a test tube series dilution test, the readings being taken after 24 hours incubation at 37° C. The numbers allotted to the compounds of the invention in Table 1 correspond to the numbers of the Preparative Examples in which the preparation of the particular compounds are described. […]

>  <Compound>
CC1(C)S[C@@H]2[C@H](NC(=O)C3(C)CC3(Cl)Cl)C(=O)N2[C@H]1C(=O)O (stereo partly drawn)

>  <MIC (U/ml)>
0.2

$$$$
>  <Compound>
CC1(C)S[C@@H]2[C@H](NC(=O)C3CC(Cl)C(Cl)C3)C(=O)N2[C@H]1C(=O)O (stereo partly drawn)

>  <MIC (U/ml)>
0.1

$$$$
>  <Compound>
CC1(C)S[C@@H]2[C@H](NC(=O)C3CCC(Cl)C3)C(=O)N2[C@H]1C(=O)O (stereo partly drawn)

>  <MIC (U/ml)>
0.1

$$$$
>  <Compound>
CC1(C)S[C@@H]2[C@H](NC(=O)C3(C#N)CCC3)C(=O)N2[C@H]1C(=O)O

>  <MIC (U/ml)>
0.2

$$$$
>  <Compound>
CC1(C)S[C@@H]2[C@H](NC(=O)C3CCC(Cl)CC3)C(=O)N2[C@H]1C(=O)O (stereo partly drawn)

>  <MIC (U/ml)>
0.1

$$$$
>  <Compound>
CC1(C)S[C@@H]2[C@H](NC(=O)C3(C)CC3(Br)Br)C(=O)N2[C@H]1C(=O)O (stereo partly drawn)

>  <MIC (U/ml)>
0.2

$$$$
